- study.system: SARS-CoV-2 3CLpro (Severe acute respiratory syndrome coronavirus 2)
- experimental.protocol: biochemical
- Type: biochemical
- Design: unit not given here
- recorded.conditions: LOPAC1280 primary screen with protease, 5 µM compound, mean of the two replicates
Where a name gives a salt, the structure may show the parent alone.
test.readout: mean (LOPAC_screen_w_protease)
Give bare numbers.

>  <molecule>
CC(C)C[C@H](NC(=O)[C@@H](O)[C@H](N)Cc1ccccc1)C(=O)O [Bestatin hydrochloride]

>  <test.readout>
mean (LOPAC_screen_w_protease)

>  <number>
2.127

$$$$
>  <molecule>
CN(Cc1cnc2nc(N)nc(N)c2n1)c1ccc(C(=O)N[C@@H](CCC(=O)O)C(=O)O)cc1 [(-)Amethopterin]

>  <test.readout>
mean (LOPAC_screen_w_protease)

>  <number>
2.014

$$$$
>  <molecule>
COc1ccc2c(c1OC)C(=O)O[C@@H]2[C@H]1c2c(cc3c(c2OC)OCO3)CCN1C.Cl [Noscapine hydrchloride]

>  <test.readout>
mean (LOPAC_screen_w_protease)

>  <number>
1.752

$$$$
>  <molecule>
C1COC(NC(C2CC2)C2CC2)=N1 [Rilmenidine hemifumarate]

>  <test.readout>
mean (LOPAC_screen_w_protease)

>  <number>
2.121

$$$$
>  <molecule>
Oc1cc(-c2ccccc2)nc2nc(Cl)ccc12

>  <test.readout>
mean (LOPAC_screen_w_protease)

>  <number>
1.995

$$$$

Okay, here is my list. What is mean (LOPAC_screen_w_protease) for each of these?
1. CN(C(=O)Cc1ccc(Cl)c(Cl)c1)C(CN1CCCC1)c1cccc(OCC(=O)O)c1.Cl (stereo not shown) [ICI 204,448 hydrochloride]
2. CC(CCc1ccc(O)cc1)NCCc1ccc(O)c(O)c1 (stereo not shown) [Dobutamine hydrochloride]

Result:
[1.925, 2.053]

For each of the molecules below, state mean (LOPAC_screen_w_protease).
1. O=[N+]([O-])c1cccc2c(Br)n[nH]c12
2. N[C@@H](Cc1ccc(O)c(I)c1)C(=O)O
3. NCCS(=O)(=O)O
4. Cl.c1ccc2sc(C3(N4CCCCC4)CCCCC3)cc2c1 [BTCP hydrochloride]
5. Cc1ccccc1/C=C/C1=NCCN1 [Metrazoline oxalate]
6. Br.COc1ccccc1N1CCN(CCCCN2C(=O)c3ccccc3C2=O)CC1 [NAN-190 hydrobromide]
7. CCCCCCCCCCCCCCCCCC(=O)OC(CC(=O)O)C[N+](C)(C)C.[Cl-] (racemic) [DL-Stearoylcarnitine chloride]

Result:
1. 1.829
2. 1.849
3. 1.917
4. 2.11
5. 1.853
6. 1.999
7. 1.7681

// each listed molecule needs a value for mean (LOPAC_screen_w_protease)
1. Br.CCCN(CCC)C1CCc2cccc(O)c2C1 (racemic) [(±)-8-Hydroxy-DPAT hydrobromide]
2. CC(C)Cc1ccc(C(C)C(=O)O)cc1 (racemic) [(±)-Ibuprofen]
3. CCN1C(=O)C=CC1=O [N-Ethylmaleimide]
4. O=C(O)C1CCNCC1

Result:
[1.82, 1.9945, 1.849, 1.97]

Request: Would you kindly share the measured mean (LOPAC_screen_w_protease) for CCCN(CCC)CCc1ccc(O)c(O)c1 [Dipropyldopamine hydrobromide] ?
Result: 2.021
